# TARGET UNDER TEST: human OX2 receptor (Homo sapiens, UniProt O43614)
# Construct: expressed in transfected cells; host or cells: CHO cells
# Sequence (O43614 1-444): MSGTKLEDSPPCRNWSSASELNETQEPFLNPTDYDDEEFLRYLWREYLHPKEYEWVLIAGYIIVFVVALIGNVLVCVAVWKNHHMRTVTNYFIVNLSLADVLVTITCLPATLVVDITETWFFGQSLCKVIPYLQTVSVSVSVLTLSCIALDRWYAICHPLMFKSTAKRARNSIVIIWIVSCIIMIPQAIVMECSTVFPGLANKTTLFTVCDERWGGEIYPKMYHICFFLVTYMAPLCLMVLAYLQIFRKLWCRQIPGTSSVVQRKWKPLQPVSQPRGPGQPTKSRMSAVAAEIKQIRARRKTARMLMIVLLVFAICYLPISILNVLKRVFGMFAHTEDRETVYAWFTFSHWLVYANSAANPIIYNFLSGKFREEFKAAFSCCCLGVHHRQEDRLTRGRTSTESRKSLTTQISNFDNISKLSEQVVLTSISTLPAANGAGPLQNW
# ASSAY INFO: Measurement of orexin receptor antagonistic activity (calcium fluorescence, FLIPRtetra)
# Type: cell-based
# CONDITIONS: CHO, 10 μM test compound; CHO cells expressing human OX2 receptor; OX-A 0.3 nM; read-out: Human Orexin2 receptor inhibition (at 10 μM)
READOUT KIND: inhibition at 10 µM (%)

C[C@@H]1CON(c2cccc(CO)n2)CCN1C(=O)c1ccccc1-n1nccn1 | 99
Cc1ccc(-n2nccn2)c(C(=O)N2CCN(c3cccc(C(F)(F)F)n3)OC[C@H]2C)c1 | 96
Cc1cc(C#N)nc(N2CCN(C(=O)c3cc(F)ccc3-n3nccn3)[C@H](C)CO2)n1 | 102

* * *

# TARGET UNDER TEST: human OX1 receptor (Homo sapiens)
# Construct: expressed in transfected cells; host or cells: CHO cells
# Sequence (O43613 whole entry): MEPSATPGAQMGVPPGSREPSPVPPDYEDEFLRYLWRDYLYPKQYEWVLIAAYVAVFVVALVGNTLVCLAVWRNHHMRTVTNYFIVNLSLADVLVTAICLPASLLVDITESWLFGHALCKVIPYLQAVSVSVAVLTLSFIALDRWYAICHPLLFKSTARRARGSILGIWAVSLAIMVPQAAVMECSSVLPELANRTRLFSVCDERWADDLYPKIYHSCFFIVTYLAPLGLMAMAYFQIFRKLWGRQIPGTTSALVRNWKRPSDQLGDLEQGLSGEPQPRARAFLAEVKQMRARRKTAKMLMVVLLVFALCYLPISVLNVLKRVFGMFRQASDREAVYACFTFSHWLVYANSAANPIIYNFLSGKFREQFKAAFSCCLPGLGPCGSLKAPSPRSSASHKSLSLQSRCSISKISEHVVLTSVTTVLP
# ASSAY INFO: Measurement of orexin receptor antagonistic activity (calcium fluorescence, FLIPRtetra)
# Type: cell-based
# CONDITIONS: CHO, 10 μM test compound; CHO cells expressing human OX1 receptor; OX-A 1 nM; read-out: Human Orexin1 receptor inhibition (at 10 μM)
Structures can show the parent of a compound that is named as a salt.
READOUT KIND: inhibition at 10 µM (%)

Example entries begin here.
Cc1cc(N2CCN(C(=O)c3ccccc3-c3ncc(F)s3)CCO2)nc(C)n1 | 41
Cc1nc(N2CCN(C(=O)c3ccccc3-n3nccn3)C[C@H](C)O2)cc(C(F)(F)F)n1 | 73
Cc1nc(N2CCN(C(=O)c3cc(Cl)ccc3-n3nccn3)C[C@H](C)O2)cc(C(F)(F)F)n1 | 87
C[C@@H]1CON(c2ccnc(C3CC3)n2)C[C@H](C)N1C(=O)c1ccccc1-n1nccn1 | 99
Cc1cc(N2CCN(C(=O)c3ccccc3-n3nccn3)C[C@H](C)O2)nc(C)n1 | 68

1 = Cc1ncc(Cl)c(N2CCN(C(=O)c3cc(Cl)ccc3-c3ncccn3)[C@H](C)CO2)n1
2 = CCOC(=O)c1cc(N2CCN(C(=O)c3cc(Cl)ccc3-n3nccn3)C[C@H](C)O2)nc(C)n1
Exam item: Min inhibition at 10 µM? 1 | 2 Answer = label.
Marked response: 2
(2: 8%, 1: 66%)

A = Cc1cc(N2C[C@@H](C)N(C(=O)c3ccccc3-n3nccn3)[C@@H](C)CO2)nc(C)n1
B = Cc1cc(N2CCN(C(=O)c3cc(F)ccc3-c3nccs3)C[C@H](C)O2)nc(C)n1 [Example 87, hydrochloride]
Exam item: Min inhibition at 10 µM? A | B Answer = label.
Marked response: A

These entries and their values trace back to patent US10131653B2.
